# target or system: T1, human beta CGRP (SEQ ID NO: 81) (human, not fully specified)
# T1 construct: also called human βCGRP; hβCGRP
# T1 peptide: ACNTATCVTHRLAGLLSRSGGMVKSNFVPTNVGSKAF
# assay method text: SPR, 37 C, mutein captured, CGRP analyte
kon: recorded values

lipocalin mutein SEQ ID NO: 17 (designed binder, biotinylated by NHS chemistry for capture in SPR) QDSTSDLIPAPPLSKVPLQQNFQDNQFHGKWYVVGRAGNDVLREDKDPEKMEATIYELKEDKSYNVTDVGFVQKRCMYVTHTFVPGSQPGEFTLGNIESYPGVTSALVRVVSTDYNQHAMVFVKLVKQNRELFEITLYGRTKELTSELKENFIRFSKSLGLPENHIVFPVPIDQCIDGSAWSHPQFEK: 1.36e+07 M⁻¹ s⁻¹

Now for another entry.
Prompt: Look up kon for this binder: lipocalin mutein SEQ ID NO: 27 (designed binder, biotinylated by NHS chemistry for capture in SPR) QDSTSDLIPAPPLSKVPLQQNFQDNQFHGKWYVVGWAGNTLLREDKDPIKMQAMIYELKEDKSYNVTWVYFADKKCNYHIETFVPGSQPGEFTLGTIKSYPGETPILVRVVSTNYNQHAMVFFKGVNQNREIFEIVLYGRTKELTNELKENFIRFSKSLGLPENHIVFPVPIDQCIDGSAWSHPQFEK
Completion: 2.04e+06 M⁻¹ s⁻¹

The measured values listed here are drawn from patent US20190338002A1.
